- subject-of-test: T1, Clathrin N-terminal domain (CLTC NTD) (human)
- T1 construct: also called Clathrin NTD
- method-notes: fluorescence polarisation
- cond: both partners purified
pKd: −log10 of the molar value. Where no end group is shown, it is not given here.
measured-quantity: pKd

[
  {
    "binder": "SVDLITFDSV (also: FITC label, position not given here) [FITC-NSP3]",
    "obs-value": 4.68
  }
]
